Every entry's value here was drawn from paper PMC3849035.

- System: RSV
- assay_overview: Inhibition of virus-induced cytopathicity, RSV in HeLa cells
- Type: cell-based
- run_parameters: human respiratory syncytial virus
result_type: pEC50
pEC50 here is simply -log10 of the concentration when that concentration is written in mol/L.

Read the entry NC(=O)c1ncn([C@@H]2O[C@H](CO)[C@@H](O)[C@H]2O)n1 [Ribavirin, reference compound] and write its reported pEC50.
5.00

====

- System: VSV
- assay_overview: microbe, parasite or virus in culture
- Assay type: cell-based
- run_parameters: Vesicular stomatitis virus, HeLa
result_type: pEC50
pEC50 here is simply -log10 of the concentration when that concentration is written in mol/L.

Read the entry NC(=O)c1ncn([C@@H]2O[C@H](CO)[C@@H](O)[C@H]2O)n1 [Ribavirin, reference compound] and write its reported pEC50.
4.54
